Listed below: melting point values for each entry.

Record excerpt, results attached:
INSERT INTO measurements (compound, assay_metric, assay_result) VALUES
  ('COc1nccc(C)c1NC(=O)c1cc(C)nc2c1c(C)nn2-c1ccccc1', 'melting point', '172 to 174 °C'),
  ('Cc1cc(=O)c(-c2ccc(C#N)cc2)c(C)[nH]1', 'melting point', '192 to 195 °C'),
  ('N=c1cc(NC(=S)Nc2ccccc2)nc2n1CCCS2', 'melting point', '157 to 158 °C'),
  ('CS(=O)(=O)c1ccc(-c2oc(CO)cc(=O)c2Oc2ccc(F)cc2)cc1', 'melting point', '206 °C'),
  ('N#CN=C(N)NCCCCNC(=O)[C@@H](Cc1ccccc1)NC(=O)CCCC(=O)O', 'melting point', '63 °C');

INPUT: Given C=Cc1ccncc1C#N , state its recorded melting point.
OUTPUT: 56 to 57 °C

INPUT: Proceed to O=S1(=O)c2ccccc2C(c2ccccc2)N1CCCN1CCN(c2ccc(F)cc2)CC1 (racemic)
OUTPUT: 182 °C

INPUT: Proceed to CCCc1noc(-c2ncn3c2[C@@H]2CCCN2C(=O)c2c(Cl)cccc2-3)n1
OUTPUT: 176 to 178 °C

INPUT: Proceed to CCCCSC(=O)NC(=O)C(c1ccccc1)c1ccccc1
OUTPUT: 99 °C

INPUT: Proceed to CCCCNS(=O)(=O)c1ccc(OC)c(NC(C)=O)c1
OUTPUT: 115 to 117 °C

INPUT: Proceed to CCOC(=O)CC(=O)Nc1cccc(F)c1CO
OUTPUT: 91 °C

INPUT: Proceed to CC(C)(C)c1cc(SC(=O)NN)cc(C(C)(C)C)c1O
OUTPUT: 130 to 131 °C

INPUT: Proceed to NCc1cc(-c2ccccc2)no1
OUTPUT: 50 °C

INPUT: Proceed to O=C1OC[C@@H](CO)N1c1nc(-c2ccc(Br)cc2)cs1
OUTPUT: 189 to 192 °C

INPUT: Proceed to Sc1nccn1Cc1ccsc1
OUTPUT: 130 to 131 °C

INPUT: Proceed to C[C@H]1CCCC(C)(C)[C@@H]1C(=O)c1ccoc1
OUTPUT: 114 to 116 °C

INPUT: Proceed to O=C(O)CN1C(=O)C(=Cc2ccc(OCc3ccc(C(F)(F)F)cc3)c(OCc3ccccc3)c2)SC1=S
OUTPUT: 257 to 263 °C

----------
Listed below: melting point values for each entry.

INSERT INTO results (compound, assay_result) VALUES
  ('CCCCOc1ncc(C(=O)N[C@@H]2CCCC[C@H]2O)cc1-c1cc(C(F)(F)F)ccc1F', '172 to 178 °C');

INPUT: Given CCc1cc2c(SCC(=O)OC)ncnc2s1 , state its recorded melting point.
OUTPUT: 36 to 58 °C

INPUT: Proceed to COC(=S)C1CCn2c(C(=O)c3ccccc3)ccc21 (stereo unspecified)
OUTPUT: 69 °C

INPUT: Proceed to Cc1csc2ccc3[nH]c4c(c3c12)CNCC4
OUTPUT: 234 °C

INPUT: Proceed to O=C1c2ccccc2C(=O)N1Cc1cc2cc(Cl)cc(Br)c2o1
OUTPUT: 194 to 198 °C

INPUT: Proceed to COC1CCC(O)C(CNC(C)=O)O1 (stereo unspecified)
OUTPUT: 117 to 118 °C

INPUT: Proceed to CN(C)c1ccc(C(=O)c2ccccc2)cc1NC(=O)c1ccn2c1CSC2c1cccnc1 (stereo unspecified)
OUTPUT: 186 °C

INPUT: Proceed to O=S(=O)(c1ccccc1)n1cc(I)c2c(OC3CCCCC3)ccnc21
OUTPUT: 112 to 114 °C

INPUT: Proceed to O=C1c2c(-c3ccccc3)noc2CCC1CCCN1CCOCC1 (stereo unspecified)
OUTPUT: 86 to 88.5 °C

INPUT: Proceed to O=C(O)CCn1c(=O)n2n(c1=O)C(C(=O)O)C=CC2 (stereo unspecified)
OUTPUT: 172 to 175 °C

INPUT: Proceed to COc1ccc(SC(C(=O)NO)c2ccccc2)cc1 (stereo unspecified)
OUTPUT: 155 °C

----------
assay-metric: melting point

Record excerpt, results attached:
INSERT INTO measurements (molecule, assay_metric, assay_result) VALUES
  ('COCc1ccc(C2(O)CCN(CC(O)c3cc(C)c(O)cc3C)CC2)cc1 (stereo not given)', 'melting point', '166 °C'),
  ('O=C(CCc1cc(Br)c(OC(=O)c2c3ccccc3nc3ccccc23)c(Br)c1)ON1C(=O)CCC1=O', 'melting point', '175 to 176 °C'),
  ('CC(=O)C1CCC2C3CCC4CC(O)C(N5CCOC(C)(C)C5)CC4(C)C3C(O)CC12C (stereo not given)', 'melting point', '182 to 185 °C'),
  ('Cc1oc(-c2ccco2)nc1COc1ccc(COc2nn(C)cc2CC(=O)O)cn1', 'melting point', '155 to 156 °C'),
  ('CCCCCCOc1ccc(-c2nc(-c3ccc(OCCCCCC)cc3O)nc(-c3ccc(OCCCCCC)cc3OCCCCCC)n2)c(O)c1', 'melting point', '85 to 87 °C');

INPUT: Given C=C(Cl)C[C@@H](CC(=O)N(CC(=O)N(C)CCc1ccccn1)CC1CCCCC1)C(=O)N[C@@H](CC1CCCCC1)[C@@H](O)[C@@H](O)CC(C)C , state its recorded melting point.
OUTPUT: 140 °C

INPUT: Proceed to COc1cc(CCc2ccc(Nc3ccccc3C(=O)O)cc2)cc(OC)c1OC
OUTPUT: 146 to 147 °C

INPUT: Proceed to CCC(C)(N)Cc1c[nH]c2ccccc12 (stereo not given)
OUTPUT: 112 °C

INPUT: Proceed to COC1=C(C)C(=O)c2ccccc2C1=O
OUTPUT: 93 to 94 °C

INPUT: Proceed to Cc1nc(-c2ccc(C(F)(F)F)cc2)sc1CSc1cc(C(C)C)c(OCC(=O)O)c(C(C)C)c1
OUTPUT: 161 to 163 °C

----------
assay-metric: melting point

Record excerpt, results attached:
INSERT INTO results (compound, assay_result) VALUES
  ('Cc1nc(N(C)C)ccc1N1CCCn2c1nc1c(Cl)ccc(C(OC(F)F)C(F)(F)F)c12 (stereo unspecified)', '233 to 235 °C'),
  ('Cc1ncc(CO)c2c1OC(C(F)(F)F)C(C(=O)O)=C2 (stereo unspecified)', '76.1 to 80.1 °C'),
  ('CN(C)CCn1c2c(c3ccccc31)CCSCCC2', '62 to 64 °C'),
  ('COc1cc(OCc2ccncc2)ccc1/C=C/c1cc(/C=C/c2c[nH]c3ccccc23)n[nH]1', '128 to 139 °C'),
  ('CC(=O)Nc1cc(C)cc(N)c1', '123 °C');

INPUT: Given Cc1ccc(NC(=O)c2cnn3c(C(F)F)cc(-c4ccc(C(F)(F)F)cc4)nc23)cc1S(N)(=O)=O , state its recorded melting point.
OUTPUT: 249 °C

INPUT: Proceed to CCOC(=O)c1cn(CC)c2nc(N3CCN(Cc4ccc(Cl)cc4)CC3)ncc2c1=O
OUTPUT: 150 °C

INPUT: Proceed to COc1cccc(-c2cc(NC(=O)CC(=O)C(F)(F)F)[nH]n2)c1
OUTPUT: 107 to 110 °C

INPUT: Proceed to CCOC(=O)c1cnc2nc3ccccc3n2c1O
OUTPUT: 309 to 310 °C

----------
Listed below: melting point values for each entry.

INSERT INTO assay_data (molecule, assay_result) VALUES
  ('O=C(CCc1cccnc1)NCCCCC1CCN(C(=O)Nc2cccc3ccccc23)CC1', '143 to 144 °C'),
  ('O=C1Nc2ccccc2C12COc1cc3c(cc12)OCCCO3 (stereo not given)', '235 to 236 °C'),
  ('CC(C)(C)NS(=O)(=O)c1ccc([Si](C)(C)C)s1', '102 to 104 °C');

INPUT: Given CCCC(CCC)n1c(CC)nc2c1c(=O)n(C)c(=O)n2-c1c(OC)ccnc1C , state its recorded melting point.
OUTPUT: 124 to 126 °C

INPUT: Proceed to COC(=O)c1cc(OCCCN2CCN(c3cccc4sccc34)CC2)n(C)n1
OUTPUT: 109 to 110 °C

----------
Listed below: melting point values for each entry.

INSERT INTO results (compound, assay_result) VALUES
  ('Clc1ccccc1-c1cc(-c2ccccc2)c(-c2ccccc2Cl)nn1', '176 to 178 °C'),
  ('COc1ccc(/C=C/c2ccncn2)cc1OC1CCCC1', '83 to 84.5 °C');

INPUT: Given CCc1c(C)oc(-c2ccc(S(C)(=O)=O)cc2)c(Oc2ccc(F)cc2F)c1=O , state its recorded melting point.
OUTPUT: 173 °C

INPUT: Proceed to COc1ccc2c(Cc3c(Cl)cncc3Cl)nn3nnnc3c2c1
OUTPUT: 275 to 276 °C

INPUT: Proceed to N#Cc1ccc(OCCCOc2cccc(-c3cc4cc(C#N)ccc4o3)c2)cc1
OUTPUT: 157 to 158 °C

INPUT: Proceed to CCOc1ccc2c(c1)n(C1CCCCC1)c(=O)n2Cc1ccc(NC(=O)N(C)C)cc1OC
OUTPUT: 250 °C
